settings: in acetone, 308.15 K
Measure name: solubility (mole fraction)

For the compound `O=C(O)c1cccnc1Nc1cccc(C(F)(F)F)c1` , give its measured solubility (mole fraction) value.
0.037

* * *

conditions: in n-hexane, 328.15 K
Measure name: solubility (mole fraction)

For the molecule `O=C(O)c1cccnc1Nc1cccc(C(F)(F)F)c1` , give its measured solubility (mole fraction) value.
0.0155

* * *

settings: in methanol, 298.15 K
Measure name: solubility (mole fraction)
Keep the answer to the number alone.

For the compound `O=C(O)c1cccnc1Nc1cccc(C(F)(F)F)c1` , give its measured solubility (mole fraction) value.
0.00862

* * *

conditions: in ethyl acetate, 313.15 K
Measure name: solubility (mole fraction)
Keep the answer to the number alone.

For the compound `O=C(O)c1cccnc1Nc1cccc(C(F)(F)F)c1` , give its measured solubility (mole fraction) value.
0.0393
